- SYSTEM_UNDER_TEST: rat H3 receptor (Rattus norvegicus)
- Construct: expressed in transfected cells
- Sequence (Q9QYN8 whole entry): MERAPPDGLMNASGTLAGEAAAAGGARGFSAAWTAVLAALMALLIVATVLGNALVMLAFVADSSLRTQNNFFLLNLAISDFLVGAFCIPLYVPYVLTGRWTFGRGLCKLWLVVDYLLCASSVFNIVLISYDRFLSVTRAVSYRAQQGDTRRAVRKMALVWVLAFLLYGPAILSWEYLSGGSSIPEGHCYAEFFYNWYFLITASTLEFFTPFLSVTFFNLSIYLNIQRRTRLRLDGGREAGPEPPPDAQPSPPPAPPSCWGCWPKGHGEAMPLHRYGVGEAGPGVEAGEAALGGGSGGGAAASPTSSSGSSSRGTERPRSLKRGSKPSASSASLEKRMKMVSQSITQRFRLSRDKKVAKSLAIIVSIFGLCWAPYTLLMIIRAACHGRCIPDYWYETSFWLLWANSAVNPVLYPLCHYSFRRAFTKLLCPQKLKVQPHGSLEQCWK
- TEST_DETAILS: Cyclic AMP accumulation, SK-N-MC subline with reporter construct and rat H3 receptor
- Assay type: cell-based
- TEST_PARAMETERS: cAMP accumulation, SK-N-MC reporter cells expressing rat H3; average of results; read-out: Rat pA2 (converted)
Kb under 10 nM gets class 1, anything at or over 10 nM gets class 0.

>>> print(df.to_string())
                                   molecule  discrete_label
0  O=C(c1ccc(C(O)c2ccccc2)cc1)N1CCCN(C2CC2)CC1 (centres unmarked)         class 1
1  O=C(c1ccc(C(O)C2CCCCC2)cc1)N1CCCN(C2CC2)CC1 (centres unmarked)         class 1
2  CC(C)N1CCCN(C(=O)c2ccc(C(O)C3CCCCC3)cc2)CC1 (centres unmarked)         class 0
3  O=C(c1ccc(C(=O)N2CCCN(C3CC3)CC2)cc1)C1CCCCC1         class 1
4  CCC(O)c1ccc(C(=O)N2CCCN(C3CCC3)CC2)cc1 (centres unmarked)         class 1
5          CC(C)N1CCN(C(=O)c2ccc(CO)cc2)CC1         class 0
6   CC(C)(C)c1ccc(C(=O)N2CCN(C3CCC3)CC2)cc1         class 0
7  CC(C)C(O)c1ccc(C(=O)N2CCCN(C3CC3)CC2)cc1 (centres unmarked)         class 0

----------
- SYSTEM_UNDER_TEST: human H3 receptor (Homo sapiens, UniProt Q9Y5N1)
- Sequence (Q9Y5N1 whole entry): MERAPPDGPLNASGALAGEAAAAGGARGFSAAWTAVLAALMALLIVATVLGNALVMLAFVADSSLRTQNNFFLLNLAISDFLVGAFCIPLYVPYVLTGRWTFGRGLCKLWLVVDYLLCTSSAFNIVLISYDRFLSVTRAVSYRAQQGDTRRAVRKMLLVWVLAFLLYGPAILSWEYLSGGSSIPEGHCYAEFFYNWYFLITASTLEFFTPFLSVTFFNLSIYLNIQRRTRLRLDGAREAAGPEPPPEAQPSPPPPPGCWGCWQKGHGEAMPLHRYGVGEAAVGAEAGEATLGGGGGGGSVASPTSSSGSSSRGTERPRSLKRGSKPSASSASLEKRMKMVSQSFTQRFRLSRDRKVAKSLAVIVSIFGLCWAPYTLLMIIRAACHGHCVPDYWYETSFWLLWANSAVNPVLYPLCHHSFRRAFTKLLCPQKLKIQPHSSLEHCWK
Ki under 4 nM gets Yes, anything at or over 4 nM gets No.

>>> df
                                    compound  discrete_label
 0  CCC(O)c1ccc(C(=O)N2CCN(C3CC3)CC2)cc1 (centres unmarked)              No
 1  CC(C)C(O)c1ccc(C(=O)N2CCCN(C3CCC3)CC2)cc1 (centres unmarked)             Yes
 2         CC(C)N1CCCN(C(=O)c2ccc(CO)cc2)CC1              No
 3  CC(C)C(O)c1ccc(C(=O)N2CCN(C3CCC3)CC2)cc1 (centres unmarked)              No
 4  CCC(O)c1ccc(C(=O)N2CCCN(C(C)C)CC2)cc1 (centres unmarked)              No
 5  CCC(O)c1ccc(C(=O)N2CCCN(C3CCC3)CC2)cc1 (centres unmarked)             Yes
 6  CC(C)C(O)c1ccc(C(=O)N2CCCN(C(C)C)CC2)cc1 (centres unmarked)              No
 7         O=C(c1ccc(CO)cc1)N1CCN(C2CCC2)CC1              No
 8  O=C(c1ccc(C(O)C2CCCCC2)cc1)N1CCCN(C2CCC2)CC1 (centres unmarked)             Yes
 9  CC(C)C(O)c1ccc(C(=O)N2CCCN(C3CC3)CC2)cc1 (centres unmarked)             Yes
10         CCc1ccc(C(=O)N2CCN(C3CCC3)CC2)cc1              No
11  O=C(c1ccc(C(=O)N2CCCN(C3CC3)CC2)cc1)C1CCCCC1             Yes
12  O=C(c1ccc(C(O)C2CCCCC2)cc1)N1CCCN(C2CC2)CC1 (centres unmarked)             Yes
13  CCC(C)N1CCN(C(=O)c2ccc(CO)cc2)CC1 (centres unmarked)              No
14  O=C(c1ccc(C(O)C2CCCCC2)cc1)N1CCN(C2CC2)CC1 (centres unmarked)              No
15  CC(C)N1CCCN(C(=O)c2ccc(C(O)C3CCCCC3)cc2)CC1 (centres unmarked)             Yes
16      CCCCCc1ccc(C(=O)N2CCN(C3CCC3)CC2)cc1              No
17  CC(O)c1ccc(C(=O)N2CCN(C(C)C)CC2)cc1 (centres unmarked)              No
18  CC(C)N1CCN(C(=O)c2ccc(C(O)C3CCCCC3)cc2)CC1 (centres unmarked)              No

----------
- SYSTEM_UNDER_TEST: human H3 receptor (Homo sapiens)
- Construct: expressed in transfected cells
- TEST_DETAILS: Cyclic AMP accumulation, SK-N-MC subline with reporter construct and human H3 receptor
- Format: cell-based
- TEST_PARAMETERS: cAMP accumulation, SK-N-MC reporter cells expressing human H3; average of results; read-out: Human pA2 (converted)
Quick list: log10 of Kb per entry.
ASSAY_READOUT: log10 of Kb (log10 of the value in nM)

In [3]: df
Out[3]:
                                   molecule  assay_readout  value_measured
0  CC(C)N1CCCN(C(=O)c2ccc(C(O)C3CCCCC3)cc2)CC1 (stereo not shown)    log10 of Kb           -0.06
1  CC(C)C(O)c1ccc(C(=O)N2CCCN(C3CC3)CC2)cc1 (stereo not shown)    log10 of Kb           -0.10
2  O=C(c1ccc(C(=O)N2CCCN(C3CC3)CC2)cc1)C1CCCCC1    log10 of Kb           -0.04
3   CC(C)(C)c1ccc(C(=O)N2CCN(C3CCC3)CC2)cc1    log10 of Kb            0.56
4  O=C(c1ccc(C(O)C2CCCCC2)cc1)N1CCCN(C2CC2)CC1 (stereo not shown)    log10 of Kb           -0.02
5  CCC(O)c1ccc(C(=O)N2CCCN(C3CCC3)CC2)cc1 (stereo not shown)    log10 of Kb           -0.74
6  O=C(c1ccc(C(O)c2ccccc2)cc1)N1CCCN(C2CC2)CC1 (stereo not shown)    log10 of Kb           -0.38

----------
- SYSTEM_UNDER_TEST: UniProt Q9QYN8
ASSAY_READOUT: Ki

>>> print(df.to_string())
                                   molecule  value_measured
0  CC(C)(C)c1ccc(C(=O)N2CCN(C3CCC3)CC2)cc1 [Example 33]        0.152 µM
1  O=C(c1ccc(C(O)C2CCCCC2)cc1)N1CCCN(C2CC2)CC1 (stereo not shown) [Example 27]        0.037 µM
2  CC(C)N1CCCN(C(=O)c2ccc(C(O)C3CCCCC3)cc2)CC1 (stereo not shown) [Example 7]        0.075 µM
3  CCC(O)c1ccc(C(=O)N2CCCN(C3CC3)CC2)cc1 (stereo not shown) [Example 31]        0.205 µM

Numbers sourced from patent US20080045507A1.
